// data source = patent US20180177842A1

- system.under.test: Artificial Cell Surface (ACS): biotinylated cell surface proteins of human PBMCs bound to a streptavidin column (human)
- assay.overview: adsorption on ACS column, MALDI-TOF ms
Ends that are not written are not given here.
measured.metric: Percent Absorbed (%)
Write the answer as a number in %, unit excluded.

In [3]: df
Out[3]:
                                     binder  measurement
0  LAKYICENQDSISSKLKECCEKPLLEKHCIAEVEN [Asp-N-generated albumin fragment, SEQ ID NO 226]          100
1  VFDEFKPLVEEPQNLIK [Trypsin-generated albumin fragment, SEQ ID NO 196]           60
2  AVMDDFAAFVEK [Trypsin-generated albumin fragment, SEQ ID NO 208]           23
3  VPQVSTPTLVEVSR [Trypsin-generated albumin fragment, SEQ ID NO 197]           59
4  ICTLSEKERQIKKQTALVELVKHKPKATKEQLKAVM [Asp-N-generated albumin fragment, SEQ ID NO 225]          100
5  CCAAADPHECYAK [Trypsin-generated albumin fragment, SEQ ID NO 204]           32
6  QEPERNECFLQHK (not fully specified) [Trypsin-generated albumin fragment, SEQ ID NO 211]           18
7  LKECCEKPLLEK [Trypsin-generated albumin fragment, SEQ ID NO 201]           36

Need Percent Absorbed of YICENQDSISSK [Trypsin-generated albumin fragment, SEQ ID NO 214] , thanks.
3

Need Percent Absorbed of QEPERNECFLQHK (not fully specified) [Trypsin-generated albumin fragment, SEQ ID NO 207] , thanks.
25
